Below: a set of entries, each annotated with reported Activity.
Biological target: Tyrosine-protein phosphatase non-receptor type 1 (Homo sapiens) (UniProt P18031)
Sequence (P18031 whole entry): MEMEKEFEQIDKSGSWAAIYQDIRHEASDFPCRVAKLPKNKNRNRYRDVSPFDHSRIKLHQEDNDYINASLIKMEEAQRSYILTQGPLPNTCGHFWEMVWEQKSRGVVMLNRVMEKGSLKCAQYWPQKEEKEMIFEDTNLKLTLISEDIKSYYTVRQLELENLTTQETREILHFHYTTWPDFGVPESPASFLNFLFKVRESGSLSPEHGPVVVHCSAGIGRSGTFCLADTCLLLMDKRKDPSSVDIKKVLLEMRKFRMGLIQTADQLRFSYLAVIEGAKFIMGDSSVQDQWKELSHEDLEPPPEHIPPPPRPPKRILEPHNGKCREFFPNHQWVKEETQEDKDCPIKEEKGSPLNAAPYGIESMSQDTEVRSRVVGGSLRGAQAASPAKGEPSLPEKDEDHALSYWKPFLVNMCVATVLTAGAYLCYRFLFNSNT
Experiment: Inhibition of recombinant human PTP1B using pNPP as substrate assessed as residual activity at 30 uM after 30 mins by spectrometric method relative to control

Query Smiles: O=C(O[C@@H]1[C@@H](O)[C@H](Oc2cc(O)c(C(=O)CCc3ccccc3)c(O)c2)O[C@@H]2COC(=O)c3cc(O)c(O)c(O)c3-c3c(cc(O)c(O)c3O)C(=O)O[C@@H]12)c1cc(O)c(O)c(O)c1
Activity [%]: 1.9
--
Query Smiles: O=C(CCc1ccc(O)c(O)c1)c1c(O)cc(O)cc1O[C@@H]1O[C@H](CO)[C@@H](O)[C@H](O)[C@H]1O
Activity [%]: 102
--
Query Smiles: O=C1OC[C@H]2O[C@@H](Oc3cc(O)c(C(=O)CCc4ccc(O)cc4)c(O)c3)[C@H](O)[C@@H](O)[C@@H]2OC(=O)c2cc(O)c(O)c(O)c2-c2c1cc(O)c(O)c2O
Activity [%]: 30.9
